- MEASUREMENT_TARGET: Human immunodeficiency virus type 1 reverse transcriptase (Human immunodeficiency virus 1)
- TEST_SUMMARY: Inhibitory activity against HIV-1 reverse transcriptase
Reported values of IC50 for individual entries
MEASURED_METRIC: IC50 (µM)

[
  {
    "RECORD_SMILES": "CCc1nc2n(c1C)-c1cccnc1N(CC)c1ncccc1-2",
    "MEASUREMENT_TARGET": "Human immunodeficiency virus type 1 reverse transcriptase (Human immunodeficiency virus 1)",
    "NUMERIC_READOUT": 5.63
  },
  {
    "RECORD_SMILES": "CCN1c2ncccc2-c2nccn2-c2ccc(N3CC=CCC3)nc21",
    "MEASUREMENT_TARGET": "Human immunodeficiency virus type 1 reverse transcriptase (Human immunodeficiency virus 1)",
    "NUMERIC_READOUT": 3.9
  },
  {
    "RECORD_SMILES": "CCN1c2ncccc2-c2ncc(C)n2-c2c(C)cc(=O)[nH]c21",
    "MEASUREMENT_TARGET": "Human immunodeficiency virus type 1 reverse transcriptase (Human immunodeficiency virus 1)",
    "NUMERIC_READOUT": 12.2
  },
  {
    "RECORD_SMILES": "CCN1c2ncccc2-c2ncc(C)n2-c2ccc(N3CC=CCC3)nc21",
    "MEASUREMENT_TARGET": "Human immunodeficiency virus type 1 reverse transcriptase (Human immunodeficiency virus 1)",
    "NUMERIC_READOUT": 2.7
  }
]
